Recorded pKd for the following compounds
- tgt: BRD4^BD2 (Homo sapiens)
- Construct: ternary complex formation with both bromodomains, BRD4^BD1 and BRD4^BD2, independently
- assay_procedure: SPR binary binding of PROTAC to BRD4^BD2-functionalized surface
- recorded_conditions: 1:1 Langmuir binding model, SD N=2
pKd: −log10 of the molar value.
recorded_metric: pKd

[[record]]
compound = "Cc1ncsc1-c1ccc(CNC(=O)[C@@H]2C[C@@H](O)CN2C(=O)[C@@H](NC(=O)COCCOCCOCCOCc2cn(CCNC(=O)C[C@@H]3N=C(c4ccc(Cl)cc4)c4c(sc(C)c4C)-n4c(C)nnc43)nn2)C(C)(C)C)cc1 [Compound 15]"
test_value = 7.79

[[record]]
compound = "Cc1ncsc1-c1ccc(CNC(=O)[C@@H]2C[C@@H](O)CN2C(=O)[C@@H](NC(=O)COCc2cn(CCNC(=O)C[C@@H]3N=C(c4ccc(Cl)cc4)c4c(sc(C)c4C)-n4c(C)nnc43)nn2)C(C)(C)C)cc1 [Compound 12]"
test_value = 7.69

[[record]]
compound = "Cc1ncsc1-c1ccc(CNC(=O)[C@@H]2C[C@@H](O)CN2C(=O)[C@@H](NC(=O)COCCOCc2cn(CCNC(=O)C[C@@H]3N=C(c4ccc(Cl)cc4)c4c(sc(C)c4C)-n4c(C)nnc43)nn2)C(C)(C)C)cc1 [Compound 13]"
test_value = 7.93

[[record]]
compound = "Cc1ncsc1-c1ccc(CNC(=O)[C@@H]2C[C@@H](O)CN2C(=O)[C@@H](NC(=O)COCCOCCOCc2cn(CCNC(=O)C[C@@H]3N=C(c4ccc(Cl)cc4)c4c(sc(C)c4C)-n4c(C)nnc43)nn2)C(C)(C)C)cc1 [Compound 14]"
test_value = 8.02

[[record]]
compound = "Cc1ncsc1-c1ccc(CNC(=O)[C@@H]2C[C@@H](O)CN2C(=O)[C@@H](NC(=O)COCCOCCOCCOCCOCc2cn(CCNC(=O)C[C@@H]3N=C(c4ccc(Cl)cc4)c4c(sc(C)c4C)-n4c(C)nnc43)nn2)C(C)(C)C)cc1 [Compound 16]"
test_value = 7.80


---

- tgt: VBC / BRD4^BD1 ternary complex (Homo sapiens, UniProt O60885+P40337)
- Construct: VHL (54-213), ElonginB (17-112) ElonginC (1-104); BRD4 (44-168); His6 (N, cleaved yes)
- assay_procedure: SPR ternary complex binding, VBC surface with preformed PROTAC/BRD4 BD1 complex
- recorded_conditions: SPR, VHL, PROTAC, error SEM, N = 3, read-out: KLPT (ternary complex binding affinity)
pKd: −log10 of the molar value.
Recorded pKd for the following compounds
recorded_metric: pKd

[[record]]
compound = "Cc1ncsc1-c1ccc(CNC(=O)[C@@H]2C[C@@H](O)CN2C(=O)[C@@H](NC(=O)COCCOCCOCCOCc2cn(CCNC(=O)C[C@@H]3N=C(c4ccc(Cl)cc4)c4c(sc(C)c4C)-n4c(C)nnc43)nn2)C(C)(C)C)cc1 [Compound 15]"
test_value = 7.58

[[record]]
compound = "Cc1ncsc1-c1ccc(CNC(=O)[C@@H]2C[C@@H](O)CN2C(=O)[C@@H](NC(=O)COCCOCCOCc2cn(CCNC(=O)C[C@@H]3N=C(c4ccc(Cl)cc4)c4c(sc(C)c4C)-n4c(C)nnc43)nn2)C(C)(C)C)cc1 [Compound 14]"
test_value = 7.48

[[record]]
compound = "Cc1ncsc1-c1ccc(CNC(=O)[C@@H]2C[C@@H](O)CN2C(=O)[C@@H](NC(=O)COCc2cn(CCNC(=O)C[C@@H]3N=C(c4ccc(Cl)cc4)c4c(sc(C)c4C)-n4c(C)nnc43)nn2)C(C)(C)C)cc1 [Compound 12]"
test_value = 7.51

[[record]]
compound = "Cc1ncsc1-c1ccc(CNC(=O)[C@@H]2C[C@@H](O)CN2C(=O)[C@@H](NC(=O)COCCOCc2cn(CCNC(=O)C[C@@H]3N=C(c4ccc(Cl)cc4)c4c(sc(C)c4C)-n4c(C)nnc43)nn2)C(C)(C)C)cc1 [Compound 13]"
test_value = 7.54

[[record]]
compound = "Cc1ncsc1-c1ccc(CNC(=O)[C@@H]2C[C@@H](O)CN2C(=O)[C@@H](NC(=O)COCCOCCOCCOCCOCc2cn(CCNC(=O)C[C@@H]3N=C(c4ccc(Cl)cc4)c4c(sc(C)c4C)-n4c(C)nnc43)nn2)C(C)(C)C)cc1 [Compound 16]"
test_value = 7.48


Entry source: paper PMC10344917
